Test: Immumoenzymatic Assay: Solutions of the tested compounds in DMEM medium {DMEM) 1x; Source: Cellgro; Catalogue: 10-013-CV} were prepared immediately before use. Eleven serial three fold dilutions with variation of concentrations from 20 nM to 0.2 pM were prepared. In 4 hours after seeding, serial dilutions of the compounds were added to the cells (100 ul to each well). Final concentration of tested compounds was varied from 10 nM to 0.1 pM, and DMSO4 0.5%. If it was necessary, higher concentrations of the disclosed azoles were investigated. Each dilution of the compound was tested on two identical wells. Then the cells were incubated for three days at 37° C./5% CO2 and fixed by addition of acetone/methanol (1:1) mixture in amount of 250 ul/well. In 1 min the cells were washed 3 times with PBS (Phosphate Buffered Saline) solution. Then the cells were blocked by addition of 10% fetal calf serum in PBS solution in amount of 150 ul/well for 1 h at room temperature. Then, the cells were incubated with mouse monoclonal antibodies to cor-antigen HCV, don C7-50 (Source: Affinity BioReagents; Catalogue: MA1-080) (100 ul/well, working dilution 1:500 in 10% fetal calf serum in PBS solution) for 2 h at 37° C. The cells were washed 6 times with PBS/0.05% Tween 20 solution, then, they were incubated for 1 h with goat anti-mouse immunoglobulin antibodies (conjugated with horseradish peroxidase, 100 ul/well, working dilution 1:2500 in 10% fetal calf serum in PBS solution). The cells were washed 6 times with PBS/0.05% Tween 20 solution, once with PBS solution, after that substrate (1 tablet of o-phenylenediamine (oPD)+12 ml citrate/phosphate buffer+5 ul 30% H2O2) in amount of 100 ul/well was added. The plates were kept for 30 min in the dark at room temperature. The reaction was arrested by the addition of 2N H2SO4 in amount of 100 ul/well, and optical density (wavelength 490 nm) was measured by means of multiscan plate reader Victor3 V 1420 (Perkin Elmer). IC50 values (azole concentration, lowering the level of virus RNA-replicon on 50%) for every tested azole were calculated with the help of XLfit 4 program.
Format: cell-based
measured attribute: IC50 (pM)
Answer with a number only, understood to be in pM.

Value lookup for IC50; key = `COC(=O)N[C@H](C(=O)N1CCC[C@H]1c1nc(C#CC#Cc2ccc(-c3c[nH]c([C@@H]4CCCN4C(=O)[C@@H](NC(=O)OC)C(C)C)n3)cc2)c[nH]1)C(C)C`
4

---

Overview of recorded pIC50 for various compounds
Assay: Immumoenzymatic Assay: Solutions of the tested compounds in DMEM medium {DMEM) 1x; Source: Cellgro; Catalogue: 10-013-CV} were prepared immediately before use. Eleven serial three fold dilutions with variation of concentrations from 20 nM to 0.2 pM were prepared. In 4 hours after seeding, serial dilutions of the compounds were added to the cells (100 ul to each well). Final concentration of tested compounds was varied from 10 nM to 0.1 pM, and DMSO4 0.5%. If it was necessary, higher concentrations of the disclosed azoles were investigated. Each dilution of the compound was tested on two identical wells. Then the cells were incubated for three days at 37° C./5% CO2 and fixed by addition of acetone/methanol (1:1) mixture in amount of 250 ul/well. In 1 min the cells were washed 3 times with PBS (Phosphate Buffered Saline) solution. Then the cells were blocked by addition of 10% fetal calf serum in PBS solution in amount of 150 ul/well for 1 h at room temperature. Then, the cells were incubated with mouse monoclonal antibodies to cor-antigen HCV, don C7-50 (Source: Affinity BioReagents; Catalogue: MA1-080) (100 ul/well, working dilution 1:500 in 10% fetal calf serum in PBS solution) for 2 h at 37° C. The cells were washed 6 times with PBS/0.05% Tween 20 solution, then, they were incubated for 1 h with goat anti-mouse immunoglobulin antibodies (conjugated with horseradish peroxidase, 100 ul/well, working dilution 1:2500 in 10% fetal calf serum in PBS solution). The cells were washed 6 times with PBS/0.05% Tween 20 solution, once with PBS solution, after that substrate (1 tablet of o-phenylenediamine (oPD)+12 ml citrate/phosphate buffer+5 ul 30% H2O2) in amount of 100 ul/well was added. The plates were kept for 30 min in the dark at room temperature. The reaction was arrested by the addition of 2N H2SO4 in amount of 100 ul/well, and optical density (wavelength 490 nm) was measured by means of multiscan plate reader Victor3 V 1420 (Perkin Elmer). IC50 values (azole concentration, lowering the level of virus RNA-replicon on 50%) for every tested azole were calculated with the help of XLfit 4 program.
Type: cell-based
Details: 4 h
The value called pIC50 is obtained by taking minus log10 of the concentration in mol/L.

>  <smiles repr>
COC(=O)N[C@H](C(=O)N1CCC[C@@H]1c1nc(C#CC#Cc2ccc(-c3c[nH]c([C@@H]4CCCN4C(=O)[C@@H](NC(=O)OC)C(C)C)n3)cc2)c[nH]1)c1ccccc1

>  <measured attribute>
pIC50

>  <value>
11.27

$$$$
>  <smiles repr>
COC(=O)N[C@@H](C(=O)N1CCC[C@@H]1c1ncc(C#CC#Cc2ccc3cc(-c4cnc([C@H]5CCCN5C(=O)[C@H](NC(=O)OC)C(C)C)[nH]4)ccc3c2)[nH]1)C(C)C

>  <measured attribute>
pIC50

>  <value>
11.34

$$$$
>  <smiles repr>
COC(=O)N[C@H](C(=O)N1CCC[C@H]1c1nc(-c2ccc(C#CC#Cc3c[nH]c([C@H]4CCCN4C(=O)[C@H](NC(=O)OC)C(C)C)n3)cc2)c[nH]1)c1ccccc1

>  <measured attribute>
pIC50

>  <value>
11.74

$$$$
>  <smiles repr>
COC(=O)N[C@H](C(=O)N1CCC[C@H]1c1nc(C#CC#Cc2ccc3cc(-c4c[nH]c([C@@H]5CCCN5C(=O)[C@@H](NC(=O)OC)C(C)C)n4)ccc3c2)c[nH]1)C(C)C

>  <measured attribute>
pIC50

>  <value>
11.44

$$$$

Value lookup for pIC50; key = `COC(=O)N[C@@H](C(=O)N1CCC[C@H]1c1nc(-c2ccc(C#CC#Cc3c[nH]c([C@H]4CCCN4C(=O)[C@H](NC(=O)OC)C(C)C)n3)cc2)c[nH]1)c1ccccc1`
11.09
